# credit: the supplement of paper PMC6897291

Collected growth inhibition by drug alone values appear next to each entry.
Tested on: RIVA
test: growth inhibition by drug alone (1 - RLU/untreated control) (fraction); higher = stronger inhibition
conditions: 100 nM; time (day): 3; 177Lu-lilotomab satetraxetan 0 ug/ml
property-measured: growth inhibition by drug alone

1. Cc1ccc([N+](=O)[O-])cc1S(=O)(=O)N(C)/N=C/c1cnc2ccc(Br)cn12 ... 0.507
2. Nc1ccccc1NC(=O)c1ccc(CNC(=O)OCc2cccnc2)cc1 [Entinostat (MS-275, SNDX-275)] ... 0.288
3. CN(C)CCCCSC(=N)N ... -0.0334
4. CN(C)Cc1c(C(=O)NCCOc2ccc(C(=O)NO)cc2)oc2ccccc12 ... 0.392

----------
# key: entry, value: growth inhibition by drug alone
Tested on: U-2932
test: growth inhibition by drug alone (1 - RLU/untreated control) (fraction); higher = stronger inhibition
conditions: 1000 nM; time (day): 4; 177Lu-lilotomab satetraxetan 0 ug/ml
Where a name gives a salt, the structure may show the parent alone.
property-measured: growth inhibition by drug alone

1. C=CC[C@@H]1/C=C(\C)C[C@H](C)C[C@H](OC)[C@H]2O[C@@](O)(C(=O)C(=O)N3CCCC[C@H]3C(=O)O[C@H](/C(C)=C/[C@@H]3CC[C@@H](O)[C@H](OC)C3)[C@H](C)[C@@H](O)CC1=O)[C@H](C)C[C@@H]2OC [FK-506 (Tacrolimus)] ... 0.39
2. CCCCCCCCc1ccc(CCC(N)(CO)CO)cc1 [Fingolimod (FTY720)] ... 0.0231
3. C[C@]12CC[C@@H]3c4ccc(O)cc4CC[C@H]3[C@@H]1CCC2=O [Estrone] ... 0.046
4. COC(=O)C1=C(C)NC(C)=C(C(=O)OCCCN2CCC(c3ccccc3)(c3ccccc3)CC2)[C@H]1c1cccc([N+](=O)[O-])c1 [S-(+)-Niguldipine hydrochloride] ... 0.109
5. Oc1cccc(-c2nc(N3CCOCC3)c3oc4ncccc4c3n2)c1 ... 0.879
6. CC(C=CC(=O)NO)=CC(C)C(=O)c1ccc(N(C)C)cc1 (centres undefined) [Trichostatin A (TSA)] ... 0.983
7. CC(C)CC(=O)Nc1n[nH]c2c1CN(C(=O)C1CCN(C)CC1)C2(C)C ... 0.787
8. Nc1cc(C(F)(F)F)c(-c2cc(N3CCOCC3)nc(N3CCOCC3)n2)cn1 ... 0.62
9. CCc1c2c(nc3ccc(OC(=O)N4CCC(N5CCCCC5)CC4)cc13)-c1cc3c(c(=O)n1C2)COC(=O)[C@]3(O)CC [Irinotecan HCl Trihydrate (Campto)] ... 0.921
10. FC(F)c1nc2ccccc2n1-c1nc(N2CCOCC2)nc(N2CCOCC2)n1 ... 0.399
11. COc1cc2ncnc(Nc3ccc(F)c(Cl)c3)c2cc1NC(=O)/C=C/CN1CCCCC1 ... -0.156
12. CC(=O)O[C@]1(C(C)=O)CC[C@H]2[C@@H]3C=C(C)C4=CC(=O)CC[C@]4(C)[C@H]3CC[C@@]21C [Megestrol Acetate] ... 0.112
13. O=C1c2ccccc2-c2nc3nonc3nc21 ... 0.236
14. CCn1c(-c2nonc2N)nc2c(C#CC(C)(C)O)ncc(OC[C@H]3CCCNC3)c21 ... 0.769
15. CC(NC(=O)c1ccccc1/N=C/c1c(O)ccc2ccccc12)c1ccccc1 (centres undefined) [Sirtinol] ... 0.0486
16. COc1cc(N2CCC(N3CCN(C)CC3)CC2)ccc1Nc1ncc(Cl)c(Nc2ccccc2S(=O)(=O)C(C)C)n1 ... 0.377
17. CCC(=O)N1CCN(c2ccc(-n3c(=O)ccc4cnc5ccc(-c6cnc7ccccc7c6)cc5c43)cc2C(F)(F)F)CC1 [Torin 1] ... 0.883
18. COc1ncc(-c2ccc3nccc(-c4ccnnc4)c3c2)cc1NS(=O)(=O)c1ccc(F)cc1F ... 0.935
19. O=C(Nc1ncc([N+](=O)[O-])s1)c1ccc([N+](=O)[O-])c(Cl)c1 ... 0.14
20. COc1cc(Nc2ncc(F)c(Nc3ccc4c(n3)N(COP(=O)(O)O)C(=O)C(C)(C)O4)n2)cc(OC)c1OC ... -0.00449
21. COC(=O)c1ccc2c(C(=Nc3ccc(N(C)C(=O)CN4CCN(C)CC4)cc3)c3ccccc3)c(O)[nH]c2c1 [BIBF1120 (Vargatef)] ... -0.0853
22. Nc1ccccc1NC(=O)c1ccc(CNC(=O)OCc2cccnc2)cc1 [Entinostat (MS-275, SNDX-275)] ... 0.861
23. C[C@H](NC(=O)Cc1cc(F)cc(F)c1)C(=O)N[C@H](C(=O)OC(C)(C)C)c1ccccc1 ... -0.073
24. COc1c(C)c2c(c(O)c1C/C=C(\C)CCC(=O)OCCN1CCOCC1)C(=O)OC2 [Mycophenolate mofetil (CellCept)] ... 0.792
25. Cc1ccc(S(=O)(=O)C=CC#N)cc1 ... 0.09
26. Nc1ccccc1NC(=O)c1ccc(CNc2nccc(-c3cccnc3)n2)cc1 [Mocetinostat (MGCD0103)] ... 0.878
27. Cc1cccc(-c2[nH]c(C(C)(C)C)nc2-c2ccc3nccnc3c2)n1 ... 0.0616
28. COc1cc(OC2CCN(C)CC2)ccc1Nc1ncc2c(n1)n(C1CCCC1)c(=O)n2C ... -0.184
29. CCN(CC)CCOc1ccc(Nc2ncc3cc(-c4c(Cl)cccc4Cl)c(=O)n(C)c3n2)cc1 ... 0.785

----------
System: RIVA
test: growth inhibition by drug alone (1 - RLU/untreated control) (fraction); higher = stronger inhibition
conditions: 10 nM; time (day): 3; 177Lu-lilotomab satetraxetan 0 ug/ml
Where a name gives a salt, the structure may show the parent alone.
property-measured: growth inhibition by drug alone

1. CCOc1cc2ncc(C#N)c(Nc3ccc(F)c(Cl)c3)c2cc1NC(=O)/C=C/CN(C)C [Pelitinib (EKB-569)] ... -0.202
2. Cc1cc(Nc2cc(N3CCN(C)CC3)nc(/C=C/c3ccccc3)n2)n[nH]1 ... -0.27
3. CNC(=O)[C@@H](NC(=O)[C@H](CC(C)C)[C@H](O)C(=O)NO)C(C)(C)C ... -0.274
4. Cc1[nH]c(/C=C2\C(=O)Nc3ccc(S(=O)(=O)N(C)c4cccc(Cl)c4)cc32)c(C)c1C(=O)N1CCN(C)CC1 ... -0.187
5. CNC(=O)c1cc(COc2nnc(Nc3ccc(Cl)cc3)c3ccoc23)ccn1 ... -0.0398
6. NC(=O)Nc1sc(-c2ccc(F)cc2)cc1C(N)=O ... -0.0481
7. CC(=O)O[C@H]1C(=O)[C@@]2(C)[C@H]([C@H](OC(=O)c3ccccc3)[C@]3(O)C[C@H](OC(=O)[C@H](O)[C@@H](NC(=O)c4ccccc4)c4ccccc4)C(C)=C1C3(C)C)[C@]1(OC(C)=O)CO[C@@H]1C[C@@H]2O ... 0.943
8. O=C(NC1CCNCC1)c1n[nH]cc1NC(=O)c1c(Cl)cccc1Cl ... 0.0833
9. CC1(COc2ccc3c(c2)ncn3-c2ccc3cccc(N4CCC(N)CC4)c3n2)COC1 ... 0.0318
10. O=C(c1ccc(OCCN2CCCCC2)cc1)c1c(-c2ccc(O)cc2)sc2cc(O)ccc12 [Evista (Raloxifene Hydrochloride)] ... 0.0573
11. CN(C)CCCN=c1c2ccccc2n(C)c2[nH]c(=O)n(C)c(=O)c12 ... 0.0709
12. CC(C)Oc1cc(Nc2nc(N[C@@H](C)c3ccc(F)cn3)ncc2Cl)n[nH]1 ... 0.0887
13. Cc1nn(-c2ccccc2)c(C)c1C=NN1CCN(Cc2ccccc2)CC1 ... -0.144
14. CC(C)(C#N)c1cc(Cn2cncn2)cc(C(C)(C)C#N)c1 ... 0.0128
15. Cn1cnc(N)c2ncnc1-2 ... 0.018
16. CNC(=O)c1cc(Oc2ccc(NC(=O)Nc3cc(C(C)(C)C)nn3-c3ccc4ncccc4c3)c(F)c2)ccn1 [DCC-2036 (Rebastinib)] ... -0.0575
17. Nc1ccc(C(=O)Nc2cccc(-c3nc(N4CCOCC4)c4oc5ncccc5c4n3)c2)cn1 ... -0.00332

----------
Tested on: U-2932
test: growth inhibition by drug plus 177Lu-lilotomab satetraxetan (1 - RLU/untreated control) (fraction); higher = stronger inhibition
conditions: 1000 nM; time (day): 6; 177Lu-lilotomab satetraxetan 1 ug/ml
Where a name gives a salt, the structure may show the parent alone.
property-measured: growth inhibition by drug plus 177Lu-lilotomab satetraxetan

1) CC(=O)O[C@H]1C(=O)[C@@]2(C)[C@H]([C@H](OC(=O)c3ccccc3)[C@]3(O)C[C@H](OC(=O)[C@H](O)[C@@H](NC(=O)c4ccccc4)c4ccccc4)C(C)=C1C3(C)C)[C@]1(OC(C)=O)CO[C@@H]1C[C@@H]2O [Paclitaxel (Taxol)] ... 0.986
2) Oc1nc(-c2ccc(C(F)(F)F)cc2)nc2c1CSCC2 ... 0.062
3) COc1cccc2c1C(=O)c1c(O)c3c(c(O)c1C2=O)C[C@@](O)(C(=O)CO)C[C@@H]3O[C@H]1C[C@H](N)[C@@H](O)[C@H](C)O1 [Epirubicin Hydrochloride] ... 0.986
